- target_under_test: Grb2 SH2 domain-MBP fusion protein (Homo sapiens, UniProt P62993)
- Construct: is added biotinylated Grb2 SH2 domain-MBP fusion protein; biotin (biotinylated)
- Sequence (P62993 60-152 limits assumed): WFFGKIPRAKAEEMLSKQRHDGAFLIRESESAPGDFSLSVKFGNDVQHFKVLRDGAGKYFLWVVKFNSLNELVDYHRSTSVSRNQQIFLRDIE
- experiment_summary: ELISA-based determination of Grb2 SH2 domain-binding IC50 values
- measurement_parameters: competition with HRP-SA-biotinylated-phosphopeptide complex
pIC50: −log10 of the molar value.
measured_property: pIC50

[[record]]
molecule = "Cc1ccc2c(ccn2CC2CC=CC(c3ccc(CP(=O)(O)Cc4ccccc4)cc3)C(CC(=O)O)C(=O)NC3(CCCCC3)C(=O)NC(CC(N)=O)C(=O)NC2)c1 (stereo not shown) [Compound 41]"
measured_property = "pIC50"
readout_value = 8.08

[[record]]
molecule = "Cc1ccc2c(ccn2CC2CC=CC(c3ccc(C(C(=O)O)C(=O)O)cc3)C(CC(=O)O)C(=O)NC3(CCCCC3)C(=O)NC(CC(N)=O)C(=O)NC2)c1 (stereo not shown) [Compound 32]"
measured_property = "pIC50"
readout_value = 8.48

[[record]]
molecule = "Cc1ccc2c(ccn2CC2CC=CC(c3ccc(NC(=O)C(=O)O)cc3)C(CC(=O)O)C(=O)NC3(CCCCC3)C(=O)NC(CC(N)=O)C(=O)NC2)c1 (stereo not shown) [Compound 28]"
measured_property = "pIC50"
readout_value = 8.06

[[record]]
molecule = "Cc1ccc2c(ccn2CC2CC=CC(c3ccc(CC(=O)O)cc3)C(CC(=O)O)C(=O)NC3(CCCCC3)C(=O)NC(CC(N)=O)C(=O)NC2)c1 (stereo not shown) [Compound 33]"
measured_property = "pIC50"
readout_value = 7.65


* * *

Measured Kd values are reported for all entries that follow.
- target_under_test: Grb2 SH2 domain protein (b-Grb2) (Homo sapiens, UniProt P62993)
- Sequence (P62993 60-152 limits assumed): as above
measured_property: Kd (µM)

[[record]]
compound = "Cc1ccc2c(ccn2CC2CC=CC(c3ccc(C(C(=O)O)C(=O)O)cc3)C(CC(=O)O)C(=O)NC3(CCCCC3)C(=O)NC(CC(N)=O)C(=O)NC2)c1 (centres unmarked) [Compound 32]"
measurement_units = "µM"
readout_value = 0.00362

[[record]]
compound = "Cc1ccc2c(ccn2CC2CC=CC(c3ccc(NC(=O)C(=O)O)cc3)C(CC(=O)O)C(=O)NC3(CCCCC3)C(=O)NC(CC(N)=O)C(=O)NC2)c1 (centres unmarked) [Compound 28]"
measurement_units = "µM"
readout_value = 0.067

